Protocol Summary: Assay C: Hepatocyte clearance
Assay type: in vitro ADME, human
Test Conditions: cryopreserved hepatocyte suspension, test compound 1 μM, up to 6 h; predicted clearance as % of hepatic blood flow
Entries and their human Hepatocytes [% Qh] values follow.
# value in % Qh; strip the unit string

Please review the entries below; each comes with its answer.
CN1C(=O)COc2ncn(Cc3nnn(C[C@H](O)c4cc5ccc(F)cc5o4)n3)c(=O)c21 [Example 13]    10
CN1C(=O)CSc2ncn(Cc3nnn(C[C@H](O)c4ccc(Cl)cc4)n3)c(=O)c21 [Example 21]    6

What does the record list as human Hepatocytes [% Qh] for CN1C(=O)COc2ncn(Cc3nnn(C[C@H](O)c4cc5cc(Cl)c(F)cc5o4)n3)c(=O)c21 [Example 11] ? 29

What does the record list as human Hepatocytes [% Qh] for CN1C(=O)COc2ncn(Cc3nnn(C[C@H](O)c4cc5ccccc5s4)n3)c(=O)c21 [Example 3] ? 18

What does the record list as human Hepatocytes [% Qh] for COc1ccc([C@@H](O)Cn2nnc(Cn3cnc4c(c3=O)N(C)C(=O)CO4)n2)cc1 [Example 17] ? 13

What does the record list as human Hepatocytes [% Qh] for CN1C(=O)COc2ncn(Cc3nnn(C[C@H](O)c4cc5ccccc5o4)n3)c(=O)c21 [Example 12] ? 8

What does the record list as human Hepatocytes [% Qh] for CN1C(=O)COc2ncn(Cc3nnn(C[C@H](O)c4cc5cc(F)c(Cl)cc5o4)n3)c(=O)c21 [Example 15] ? 29

What does the record list as human Hepatocytes [% Qh] for C[C@@H]1Oc2ncn(Cc3nnn(C[C@H](O)c4ccc(Cl)cc4)n3)c(=O)c2N(C)C1=O [Example 24] ? 16

----------
Protocol Summary: Assay C: Hepatocyte clearance
Assay type: in vitro ADME, human
Test Conditions: cryopreserved hepatocyte suspension, test compound 1 μM, up to 6 h; predicted clearance as % of hepatic blood flow
Entries and their human Hepatocytes [% Qh] values follow.
# value in % Qh; strip the unit string

Please review the entries below; each comes with its answer.
CN1C(=O)COc2ncn(Cc3nnn(C[C@H](O)c4cc5cc(F)ccc5o4)n3)c(=O)c21 [Example 6]    13
CN1C(=O)COc2ncn(Cc3nnn(C[C@H](O)c4cc5ccc(F)cc5s4)n3)c(=O)c21 [Example 2]    16
CN1C(=O)C(F)(F)Oc2ncn(Cc3nnn(C[C@H](O)c4ccc(Cl)cc4)n3)c(=O)c21 [Example 22]    12
CN1C(=O)COc2ncn(Cc3nnn(C[C@H](O)c4cc5cc(Cl)ccc5o4)n3)c(=O)c21 [Example 4]    31
CN1C(=O)COc2ncn(Cc3nnn(C[C@H](O)c4ccc(Br)cc4)n3)c(=O)c21 [Example 8]    11

Now let's try a different one.
What does the record list as human Hepatocytes [% Qh] for CN1C(=O)COc2ncn(Cc3nnn(C[C@H](O)c4ccc(Cl)cc4)n3)c(=O)c21 [Example 1] ? 7

----------
Entries and their human LM [% Qh] values follow.
Protocol Summary: Assay B: Microsomal clearance
Format: in vitro ADME, human
Test Conditions: pooled liver microsomes 1 mg/ml, test compound 1 μM, 37° C., NADPH; clearance as % of hepatic blood flow

Please review the entries below; each comes with its answer.
CN1C(=O)COc2ncn(Cc3nnn(C[C@H](O)c4cc5cc(F)c(Cl)cc5o4)n3)c(=O)c21 [Example 15]    26 % Qh
CN1C(=O)COc2ncn(Cc3nnn(C[C@H](O)c4cc5ccccc5o4)n3)c(=O)c21 [Example 12]    <23 % Qh
CN1C(=O)COc2ncn(Cc3nnn(C[C@H](O)c4ccc(Br)cc4)n3)c(=O)c21 [Example 8]    <23 % Qh

What does the record list as human LM [% Qh] for C[C@@H]1Oc2ncn(Cc3nnn(C[C@H](O)c4ccc(Cl)cc4)n3)c(=O)c2N(C)C1=O [Example 24] ? <23 % Qh

----------
Test Target: human TRPA1 ion channel (Homo sapiens, UniProt O75762)
Sequence (O75762 whole entry): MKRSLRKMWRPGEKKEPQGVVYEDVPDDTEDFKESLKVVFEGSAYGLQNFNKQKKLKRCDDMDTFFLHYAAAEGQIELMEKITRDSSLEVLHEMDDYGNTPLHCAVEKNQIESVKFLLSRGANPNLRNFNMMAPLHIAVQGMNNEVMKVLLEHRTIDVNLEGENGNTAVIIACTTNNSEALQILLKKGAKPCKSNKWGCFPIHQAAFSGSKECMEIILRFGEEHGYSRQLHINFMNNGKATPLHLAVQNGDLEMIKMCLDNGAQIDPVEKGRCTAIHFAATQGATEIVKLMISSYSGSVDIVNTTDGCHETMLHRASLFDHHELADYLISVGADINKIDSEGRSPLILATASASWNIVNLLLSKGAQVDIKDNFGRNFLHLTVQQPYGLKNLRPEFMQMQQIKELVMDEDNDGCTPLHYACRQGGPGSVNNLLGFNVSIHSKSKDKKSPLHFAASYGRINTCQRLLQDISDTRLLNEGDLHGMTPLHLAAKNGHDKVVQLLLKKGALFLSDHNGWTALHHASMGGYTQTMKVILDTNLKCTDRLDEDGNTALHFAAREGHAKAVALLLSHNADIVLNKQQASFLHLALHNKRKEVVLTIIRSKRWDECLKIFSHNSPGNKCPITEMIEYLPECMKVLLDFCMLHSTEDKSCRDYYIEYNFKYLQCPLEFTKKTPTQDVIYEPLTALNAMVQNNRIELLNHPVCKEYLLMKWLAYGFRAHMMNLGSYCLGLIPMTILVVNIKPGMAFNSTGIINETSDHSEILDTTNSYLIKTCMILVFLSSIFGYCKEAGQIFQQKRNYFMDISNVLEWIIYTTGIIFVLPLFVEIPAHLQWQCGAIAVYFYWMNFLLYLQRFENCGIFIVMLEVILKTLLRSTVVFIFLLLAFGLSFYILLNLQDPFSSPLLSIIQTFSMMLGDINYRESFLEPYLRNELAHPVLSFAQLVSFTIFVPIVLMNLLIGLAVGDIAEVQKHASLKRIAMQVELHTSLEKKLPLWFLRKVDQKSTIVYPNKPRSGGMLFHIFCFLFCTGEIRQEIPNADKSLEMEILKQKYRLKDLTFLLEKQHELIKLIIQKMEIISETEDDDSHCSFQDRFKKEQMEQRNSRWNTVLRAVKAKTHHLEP
Protocol Summary: Assay A: TRPA1 assay (FLIPRtetra, AITC-induced intracellular calcium)
Test Conditions: HEK293 cell line over-expressing human TRPA1, AITC agonism (final 10 μM), AUC of calcium signal, read-out: hTRPA1 IC50
Entries and their pIC50 values follow.
Quick note: pIC50 values are minus log10 of concentrations in mol/L.

Please review the entries below; each comes with its answer.
CN1C(=O)COc2ncn(Cc3nnn(C[C@H](O)c4cc5cc(Cl)c(F)cc5o4)n3)c(=O)c21    7.09
CN1C(=O)CSc2ncn(Cc3nnn(C[C@H](O)c4ccc(Cl)cc4)n3)c(=O)c21    6.81
CN1C(=O)COc2ncn(Cc3nnn(C[C@H](O)c4cc5ccc(F)cc5s4)n3)c(=O)c21    7.82
CN1C(=O)COc2ncn(Cc3nnn(C[C@H](O)c4cc5ccc(F)cc5o4)n3)c(=O)c21    6.84
CN1C(=O)COc2ncn(Cc3nnn(C[C@H](O)c4cc5ccccc5s4)n3)c(=O)c21    7.64

What does the record list as pIC50 for `CN1C(=O)COc2ncn(Cc3nnn(C[C@H](O)c4cc5cccc(F)c5o4)n3)c(=O)c21` ? 6.82

What does the record list as pIC50 for `C[C@H]1Oc2ncn(Cc3nnn(C[C@H](O)c4ccc(Cl)cc4)n3)c(=O)c2N(C)C1=O` ? 7.28

What does the record list as pIC50 for `CN1C(=O)COc2ncn(Cc3nnn(C[C@H](O)c4ccc5c(c4)OCO5)n3)c(=O)c21` ? 6.72

----------
Protocol Summary: Assay C: Hepatocyte clearance
Format: in vitro ADME, human
Test Conditions: cryopreserved hepatocyte suspension, test compound 1 μM, up to 6 h; predicted clearance as % of hepatic blood flow
Entries and their human Hepatocytes [% Qh] values follow.
# value in % Qh; strip the unit string

Please review the entries below; each comes with its answer.
CN1C(=O)COc2ncn(Cc3nnn(C[C@H](O)c4ccc5c(c4)OCO5)n3)c(=O)c21    5
CN1C(=O)COc2ncn(Cc3nnn(C[C@H](O)c4cc(Cl)c(Cl)s4)n3)c(=O)c21    29
CN1C(=O)COc2ncn(Cc3nnn(C[C@H](O)c4cc5cc(F)c(F)cc5o4)n3)c(=O)c21    21
C[C@H]1Oc2ncn(Cc3nnn(C[C@H](O)c4ccc(Cl)cc4)n3)c(=O)c2N(C)C1=O    36

What does the record list as human Hepatocytes [% Qh] for `Cc1ccc([C@@H](O)Cn2nnc(Cn3cnc4c(c3=O)N(C)C(=O)CO4)n2)cc1` ? 5

What does the record list as human Hepatocytes [% Qh] for `CN1C(=O)COc2ncn(Cc3nnn(C[C@H](O)c4cc5cccc(F)c5o4)n3)c(=O)c21` ? 8

What does the record list as human Hepatocytes [% Qh] for `CN1C(=O)COc2ncn(Cc3nnn(C[C@H](O)c4ccc5cc(C#N)oc5c4)n3)c(=O)c21` ? 19

----------
Test Target: UniProtKB O75762
Protocol Summary: Assay A: TRPA1 assay (FLIPRtetra, AITC-induced intracellular calcium)
Test Conditions: HEK293 cell line over-expressing human TRPA1, AITC agonism (final 10 μM), AUC of calcium signal, read-out: hTRPA1 IC50
We label by threshold. Values of IC50 strictly beneath 60 nM are 1. Values of 60 nM and up are 0.

Illustrative cases are given below, each with its answer.
CN1C(=O)COc2ncn(Cc3nnn(C[C@H](O)c4ccc5cc(C#N)oc5c4)n3)c(=O)c21 [Example 19]    0
CN1C(=O)COc2ncn(Cc3nnn(C[C@H](O)c4ccc(C#N)s4)n3)c(=O)c21 [Example 16]    0
CN1C(=O)COc2ncn(Cc3nnn(C[C@H](O)c4cc5cc(F)ccc5o4)n3)c(=O)c21 [Example 6]    1
CN1C(=O)COc2ncn(Cc3nnn(C[C@H](O)c4ccc(Cl)cc4)n3)c(=O)c21 [Example 1]    1
CN1C(=O)CCc2ncn(Cc3nnn(C[C@H](O)c4ccc(Cl)cc4)n3)c(=O)c21 [Example 20]    0

Hi there! Is IC50 for C[C@@H]1Oc2ncn(Cc3nnn(C[C@H](O)c4ccc(Cl)cc4)n3)c(=O)c2N(C)C1=O [Example 24] below 60 nM, do you know? 0

Hi there! Is IC50 for Cc1ccc([C@@H](O)Cn2nnc(Cn3cnc4c(c3=O)N(C)C(=O)CO4)n2)cc1 [Example 9] below 60 nM, do you know? 0

Hi there! Is IC50 for CN1C(=O)COc2ncn(Cc3nnn(C[C@H](O)c4ccc(Br)cc4)n3)c(=O)c21 [Example 8] below 60 nM, do you know? 0

Hi there! Is IC50 for CN1C(=O)COc2ncn(Cc3nnn(C[C@H](O)c4cc(Cl)c(Cl)s4)n3)c(=O)c21 [Example 5] below 60 nM, do you know? 1

Data origin, for the record: patent US11891403B2
